Tested on: K4 kissing-loop RNA reporter
Procedure Details: apparent KD of K4 kissing-loop reporter; higher = weaker reporter binding
Reported Conditions: Eterna round: R107; input ligand: FMN 200 uM
// label = T if apparent KD of K4 kissing-loop reporter is not less than 300 nM, otherwise F

{"columns": ["Macromolecule Sequence", "Category"],
 "data": [
  ["GGAUAGGACAGAGGAUAUGGGCUAGGCAAGAAUAACUUGUCUAGCAAAUCCAUGAGGAGUGAUGUUCCAGAAGGUUGUCCUAUCG [FmnBX 1 U75]", "F"],
  ["AAAAUAAUCCAGUGAUGUUGGUAUCCAGAUACCAGCCAGGAAACUGGCCCUUGGCAGCUGUGGACGUACAAAAUAAGUACGUCCU [#OpenEnded 10 #StaticStem #K4Early]", "T"],
  ["CGGAUGUAGUGAUGUUAUAUUAGAUGUAGACGAGGACCGGUACGGCCGCCACUCGUGAUGGCUGCUAGCACGUUUCGAUGUUUGC [ExTryptoA.Cq]", "T"],
  ["AUUGUACAAGUGAUGUUUGUUUUUUCCGAAGGAGCGUCUAAUAAGACAGGUAGGUCGCGGAUUCUCUUAAUAAUCAGGUCAUUAA [JR_Nu_ExcArginiA_Sub020]", "T"],
  ["AAGGUUGUGCAUGGGAGUGAUGUUCCCACGCAGGAUAUCGCUCACGCGAGAAGGGCGAGCACAACCGCUCAAGAAACUUGAGCAA [Omei KL FMN A SS C v2]", "F"],
  ["GAAAGAAAGUAUGAUACCAGACACCCGAGUGAUGUUCGGAGCAGUGUGAUGUUCUUUUAAGUCCCUUGGCAGCAUAAAAGAAAAG [whbob_SS_Theo_B_sa84]", "F"],
  ["GCGGGCGGCUGAAGGAGCGGGCGGGCCCGAGUGAUGUUCGGGUGGGCCGUGAGGCCCGGAGCCCAGGUAGGUCGCGGUUCCGUCC [#2 Same State - Arginine B Attempt #19 (HarryS)]", "F"],
  ["UGAUGUUUAGGUCACCCAGUGAUGUUGGAAGGAGCGUGCGAAAGCACAGGUAGGUCGCCAAUCUCCUUGUGACCUGAGCAUCUAA [#SwitchBubble 14 #K4Early]", "T"],
  ["UGACUGGACUGAAGGAGCGCUAAACUCCUAGUGAUGUUAGGAAAACGAGACAAAGUCUCGAGGCAGGUAGGUCGCAGUCUAGUCU [ArgBS 18 #SwitchBubble #StaticStem]", "F"],
  ["GAUACGUCAGUGAUGUUGAUGUAUUACACAGAGGAUAUCGUAAUGACGAGAAGGCUGAGCCAUCUAGAGAUACGUAAGACGUAUC [FMN A SS t5]", "F"],
  ["GGCAUGCGUAGAGUGAUGUUCUAAGAUGAUACCAGUGCGGAAACGCACCCUUGGCAGCAUCUGACUGGCAUGCCGGCGAAAGCCU", "T"],
  ["GCAUGACGGUAAGGAUAUAGAUAAUCCUUAUAUACGUCGAGUGAUGUUCGAUGUGCCAAGGCACAUCUAGAAGGUACUGUUAGGU [Same State FMN B GF 18]", "T"]
]}

* * *

Tested on: MS2 coat protein
Procedure Details: apparent KD of MS2 coat protein; higher = weaker reporter binding
Reported Conditions: Eterna round: R107; input ligand: theophylline 2 mM

{"columns": ["Macromolecule Sequence", "apparent KD of MS2 coat protein (nM)"],
 "data": [
  ["UGACAUUGCUCAGAUACCAGACAUGAGCAUCAGCCAUGUGCCAACAAGUACAAAAUAAAAGUCCCUUGGCAGCUGAGCAAUGUCU [TheoBX 21 #MS2Left #AlternativeMS2 #Theo2]", 29.1],
  ["UAUUAUAACCGAAGGAGCGGGAAAGAUGAUUUUUAAUAUUAACAUGAGGAUCACCCAUGUACCCAGGUAGGUCGCGGAUAUUAUU [Default title]", 20.7],
  ["AAUUUCGUAGGUAAAAGUUUAGAAACUGAAGGAGCGUGGUAUUACACAGGUAGGUCGCAGAUUUUACAUGAGGAUCACCCAUGUU [JR_SSArginiA_Sub008]", 21.7],
  ["AAUCGGACUCGUACAGCAUGUUGAGCGGAAGGAGCGGCGAAAGAGCCAGGUAGGUCGCCGCCGACAUGAGGAUCACCCAUGUACG [Orenti]", 258],
  ["AAUUAUUUCUCAAUUAUUUAAUCUUCAGAAGGAGCGUGAUGAUUCACAGGUAGGUCGCUGAUGACAUGAGGAUCACCCAUGUAUU [JR_SSArginiA_Sub003]", 29.1],
  ["AAUUCCUAACAUGAGGAUCACCCAUGUGAAGGAGCGCGGAAUAACGCAGGUAGGUCGCACAUGGAACCGCUGCGAUAGCAGCAAA [MAT - Exclusion Arginine A - Mod of Eli - D29]", 14],
  ["UCGGGCAUAGCGGCCGCCACUGUUUGGCGUGCGGAUGACGGAACAUGAGGAUCACCCAUGUUGUUUAGGACCGGGCUUGCGUCGU [zyzmullin]", 14.5],
  ["ACAUGAGGAUCACCCAUGUAAUGGCACGAUACCAGCUGAUCCCGUGGCCCUUGGCAGCGUCCGGUGUGGUCCGGCGGGUUGGACG [LLLMULLIN]", 34.5],
  ["AUGGUUGUCGCGGCCGCCACUGUCGGCCGCCACUAAACAUGAGGAUCACCCAUGUAGGACCGGGACAGGACCGGGUGAUAACCAC [TryBS - #DoubleAptamer 3]", 33.2],
  ["AAUCGUAAGGCGGCCGCCACUACACAUGAGGAUCACCCAUGUCUCGCGGGCUUGCGUUGGGAUUGUAGGACCGGGCCAGUAAUAA [Exclusion - Tryptophan B (Freestyle 12)]", 23.5],
  ["UCAUAAGUACCGGUCCUCAGAUCCUCAUGACGAGGACCGGUACGGCCGCCACUCGAAACAUGAGGAUCACCCAUGUAAUAAUAUU [Brourdmod11]", 27.3],
  ["UGUAUGUGAUUUGAUACCAGACCAGCGGGUGUUACUUGAGGAACACCCAAGUAGGUUUGGGUCCCUUGGCAGCAAAUCGCAUACU [SS Theo B #24 Ms9]", 1410],
  ["ACAUGAGGAUCACCCAUGUAACAACGGGAAGGAGCGCCAAACAAGGCAGGUAGGUCGCCCACAUGAGGAUCACCCAUGUGUUGGG [Exclusion Arginine A GF 27]", 39.1],
  ["CCCAAAUAGAUAUUUGGGAUUUUACUCGAAGGAGCGUCAUAGUAGGCAGGUAGGUCGCGAGACAUGAGGAUCACCCAUGUAGAGA [ss-argA-N]", 45.1],
  ["GCACAAGAUGGAAGGAGCGCUGGUAAAAGUCACAUGAGGAUCACCCAUGUGCUCCUUGCCGAGCAGGUAGGUCGCCAUCUUGUGC [SSAB NP+V+V2 #4]", 33.2]
]}

* * *

Tested on: K4 kissing-loop RNA reporter;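 note: bound reporter read as fluorescence of individual clusters on recovered sequencing chips by microscopy, with normalized cluster intensities fitted with a binding model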
Procedure Details: apparent KD of K4 kissing-loop reporter; higher = weaker reporter binding
Reported Conditions: Eterna round: R107; input ligand: tryptophan 2.4 mM
Would you mind classing the entries by apparent KD of K4 kissing-loop reporter? Ranges: LOW = under 200 nM, MEDIUM = from 200 nM up to 400 nM, HIGH = 400 nM and over

{"columns": ["Macromolecule Sequence", "Category"],
 "data": [
  ["UUUCGUCUCUGAGGAUAUCAGAAUAGAGUGAUGUUCUAUCAAAGCCCAGUGAUGUUGGAUGCUAUCUGAGAAGGCAGUGGGCGAG [Same State FMN B GF 11]", "MEDIUM"],
  ["AGGCGGCAUGAUUGACUGAAAAGAAAUCAACGAGGACCGGUACGGCCGCCACUCGAACACCAGUGAUGUUGGUAUGGGAUAACCC [Exclusion Tryptophan A GF 19]", "LOW"],
  ["CUGAUGCUGAUGCGGUGGCCGGUGGUCGUGCGAGGACCGGUACGGCCGCCACUCGCAUGAGUGAUGUUCAUGUGUCGUCGUCGUC [#04 K4 Tryptophan A Exclusion]", "LOW"],
  ["UACCUGCUGUCAGGAUAUGAGUGCAGUGAUGUUGCACUCAACGUAACCAUCUUGAAAUACAAACACUCAGAAGGGACGCACGAAG [Isattema]", "LOW"],
  ["UGAUAGGACAGAAGGAGCGGCAGUGAUGUUGCCAAAAGGAUAAGGUGUCAAAAGACACCCUGCCAGGUAGGUCGCUGUCCUAUCU", "MEDIUM"],
  ["CCGCUACCCUCAGGAUAUUAAAUAUUAGUGAUGUUAGUAAACCGAUGGCGAAAGCCAUCGGUAUGUUGAGAAGGGAGGGUAGCGG [whbob_SS_FMNB__2th197]", "HIGH"],
  ["GCGCGUGUUAAAGGAUAUAGCAGGUGAUACAAGAAAGUGAGUGAUGUUUAUGUAGAUGAUGAUAUGUUAGAAGGUUAACAAGCGC [abcdefghijklmnopq]", "HIGH"],
  ["GGCAUGCGUAGAGUGAUGUUCUAAGAUGAUACCAGUGCGGAAACGCACCCUUGGCAGCAUCUGACUGGCAUGCCGGCGAAAGCCU", "HIGH"],
  ["GGGCGUUACGGAGUGAUGUUCCGUAGCGAUACCAGCCAUUGCGAUGGCCCUUGGCAGCGCUAUAAGCAUAGAAUUGUAGCGCUUA [Theo A Ex t7b]", "LOW"],
  ["UAUUUGAUGUCAGGAUAUCGUAUACGAGUGAUGUUCGUAUUUCUACUAUAGAUUAUUUAAAUUUUUCGAGAAGGGACAACAUUUA [#04 K4 FMN B Same State]", "LOW"],
  ["CAGAUCACAGAGUGAUGUUCUGUGUCCGAAGGAGCGCGCUUCGGCGCAGGUAGGUCGCGGAUACAGUUGACGUACCAUCUAGACA [Arg A Ex t3c]", "HIGH"],
  ["UGGACGUUAUACAAUAAGUAUAACUGGGAUACCAGUGACGAAAGUCACCCUUGGCAGCUCAACUGCCAGUGAUGUUGGUAGUCCA [Astros-Eli-mod#5]", "LOW"],
  ["GGGCAUCUGGCUGAUACCAGUGAUAAAGGGUAAGAGACAGGGAGUGAUGUUCCCUUUAGCCACCCUUGGCAGCAGUUUAAGUUUG [Exclusion Theophylline B GF 17]", "LOW"],
  ["GCCUGGGCACGAAGGAGCGCCGUGACAGGUUACUGCCGUGGGCAGUGAUGUUGCUCAAUCUGGCAGGUAGGUCGCGUGCCCAGGC", "LOW"],
  ["CACCAUGAAUUCUCUAGGAGUGAUGUUUUUCGAGGACCGGUACGGCCGCCACUCGGACCAGGAACGUGGGAGCGGCGAAAAGACU [ttmullin]", "MEDIUM"],
  ["CUGGGUUGACGAAAAGUCAACAAAAGAGAAGGAGCGCACGAAAGUGCAGGUAGGUCGCUCAAUCCAGUGAUGUUGGGUCAUCCAG [#SwitchBubble 14 #K4Late]", "HIGH"]
]}

Cited source for all entries: the supplement of paper PMC9170038
